- Protocol: inhibitors of TNFa-induced NFkB p65 translocation, primary screen, imaging, HUVEC, MLSMR starter and 10KST1 sets (AID 438);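 further: compound added about 3h40 before a 20 min TNFalpha stimulation; signal is the nuclear over cytoplasmic p65 intensity ratio per well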
- Condition Details: HUVEC TNFa-induced p65 nuclear translocation; at 2 µM, stronger effect = higher value, 0% TNFa-plus-vehicle, 100% no-TNFa wells
Experimental Readout: inhibition (%)
Answers are plain numbers, in %.

Input: Specify reported inhibition for the compound shown: `CCOC(=O)c1ccc(NCc2nc3ccccc3[nH]2)cc1`
Output: -7.9

Input: Specify reported inhibition for the compound shown: `COc1ccc(CN(CC(=O)NCc2ccco2)C(=O)CCC(=O)Nc2nccs2)cc1`
Output: 3.6

Others:
Input: Specify reported inhibition for the compound shown: `CCCCn1c(=O)[nH]c(=O)c2c1nc(-c1ccncc1)n2CCOC`
Output: -15.4
